Data provenance: ChEMBL document CHEMBL2040787

target_or_system: Carbonic anhydrase 4 (Homo sapiens)
Sequence (P22748 whole entry): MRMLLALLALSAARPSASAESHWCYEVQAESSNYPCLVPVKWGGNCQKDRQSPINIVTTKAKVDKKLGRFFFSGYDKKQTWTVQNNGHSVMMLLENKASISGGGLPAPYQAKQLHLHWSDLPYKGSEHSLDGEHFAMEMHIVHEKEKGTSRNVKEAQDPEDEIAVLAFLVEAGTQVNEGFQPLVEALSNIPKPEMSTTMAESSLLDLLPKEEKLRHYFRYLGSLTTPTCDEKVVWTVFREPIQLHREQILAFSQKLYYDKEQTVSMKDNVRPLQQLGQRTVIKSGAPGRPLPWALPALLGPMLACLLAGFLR
readout_type: Ki (µM)

A. O=C(O)c1ccc(O)c(O)c1
B. COc1c(Br)c(Br)c(Cc2c(Br)c(Br)c(OC)c(OC)c2Br)c(Br)c1OC
Data request: Which of these two has the smaller recorded Ki: A or B ? In your reply, give the label of the chosen option.
Data returned: A
(A: 2.45 µM, B: 32.7 µM)

----------
target_or_system: Carbonic anhydrase 2 (Homo sapiens)
experimental_details: Inhibition of human CA2 using 4NPA as substrate for 3 mins by Lineweaver burk plot analysis
readout_type: pKi
Interpret pKi as the negative base-10 log of the concentration measured in mol/L.

Noted for "COc1c(Br)c(Br)c(Cc2c(Br)c(Br)c(OC)c(OC)c2Br)c(Br)c1OC" : its pKi reads 4.45
